Molecular target: human phenylalanine hydroxylase (hPAH) (Homo sapiens)
Construct: Recombinant full-length wild-type (WT) hPAH was expressed in E. coli Top10 cells in fusion with a hexa-histidyl peptide; made in house; host or cells: E. coli Top10
Sequence (P00439 whole entry, the tested form may be a part): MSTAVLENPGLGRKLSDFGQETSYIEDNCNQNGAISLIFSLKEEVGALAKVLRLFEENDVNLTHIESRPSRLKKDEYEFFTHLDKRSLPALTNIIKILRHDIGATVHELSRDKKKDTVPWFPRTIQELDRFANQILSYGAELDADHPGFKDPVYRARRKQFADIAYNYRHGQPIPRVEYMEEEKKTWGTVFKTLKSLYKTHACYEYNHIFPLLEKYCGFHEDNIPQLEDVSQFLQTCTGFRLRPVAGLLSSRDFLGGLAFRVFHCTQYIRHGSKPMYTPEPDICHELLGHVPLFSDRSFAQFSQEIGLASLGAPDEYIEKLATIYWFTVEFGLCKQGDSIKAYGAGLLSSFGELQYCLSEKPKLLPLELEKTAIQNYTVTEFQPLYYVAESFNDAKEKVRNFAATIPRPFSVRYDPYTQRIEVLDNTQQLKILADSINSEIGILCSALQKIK
Test: Surface plasmon resonance, immobilized hPAH
Format: binding
Details: 25 °C; 3HQs up to 200 μM, no saturation (lower limits); read-out: KD (steady-state affinity constant)
pKd: −log10 of the molar value.
measurementName: pKd

# example entries with known answers
>>> result("N[C@@H](Cc1ccccc1)C(=O)O [L-Phe, L-phenylalanine, reference compound]")
4.33
>>> result("O=C(NCCc1ccccc1)c1c(O)c(=O)[nH]c2ccc(OC(F)(F)F)cc12 [Compound 8]")
"≤ 3.70"

Exam item: Please tell me: pKd of CCOC(=O)[C@H](Cc1ccccc1)NC(=O)c1c(O)c(=O)[nH]c2ccc(OC(F)(F)F)cc12 [Compound 3] , system human phenylalanine hydroxylase (hPAH) (Homo sapiens)?
Marked response: ≤ 3.92

====

Listing of entries alongside the reported ΔTm2 (catalytic domain).
Target: human phenylalanine hydroxylase (hPAH) (Homo sapiens)
Construct: Recombinant full-length wild-type (WT) hPAH was expressed in E. coli Top10 cells in fusion with a hexa-histidyl peptide; made in house; host or cells: E. coli Top10
Test: Differential scanning fluorimetry (thermal denaturation)
Format: binding
Details: 100 μM compound vs 1% DMSO control; * S.D. < 0.01
Text: Thermal denaturation profiles of recombinant hPAH were obtained by differential scanning fluorimetry (DSF) in a C1000 Touch thermal cycler equipped with a CFX96 optical reaction module (Bio-Rad; Hercules, CA, USA) as previously described. […] Fluorescence data were acquired using the FRET channel. […]

# example entries with known answers
>>> result("CCOC(=O)[C@H](Cc1ccccc1)NC(=O)c1c(O)c(=O)[nH]c2ccc(OC(F)(F)F)cc12")
"+0.1 ± 0.01 °C"
>>> result("CCOC(=O)[C@H](Cc1ccccc1)NC(=O)c1c(O)c(=O)[nH]c2ccccc12")
"+2.4 ± 0.01 °C"
>>> result("COC(=O)CC[C@H](NC(=O)c1c(O)c(=O)[nH]c2ccc(OC(F)(F)F)cc12)C(=O)OC")
"-0.5 ± 0.01 °C"
>>> result("O=C(NCc1ccccc1)c1c(O)c(=O)[nH]c2ccc(OC(F)(F)F)cc12")
"-0.5 ± 0.01 °C"
>>> result("CC(C)(C)OC(=O)c1c(O)c(=O)[nH]c2ccc(OC(F)(F)F)cc12")
"+0.2 ± 0.01 °C"
>>> result("O=C(NCc1ccccc1)c1c(O)c(=O)n(Cc2ccccc2)c2ccccc12")
"+0.1 ± 0.01 °C"
>>> result("CCOC(=O)CNC(=O)c1c(O)c(=O)n(Cc2ccccc2)c2ccccc12")
"+0.1 ± 0.01 °C"
>>> result("O=C(c1ccccc1)c1c(O)c(=O)[nH]c2ccc(OC(F)(F)F)cc12")
"+0.31± 0.01 °C"

Now turn to the next molecule.
Exam item: I would be grateful if you could share the reported ΔTm2 (catalytic domain) for `CN(Cc1ccccc1)C(=O)c1c(O)c(=O)[nH]c2ccc(OC(F)(F)F)cc12` .
Marked response: +0.2 ± 0.01 °C

====

Biological target: human phenylalanine hydroxylase (hPAH) (Homo sapiens)
Construct: Recombinant full-length wild-type (WT) hPAH was expressed in E. coli Top10 cells in fusion with a hexa-histidyl peptide; made in house; host or cells: E. coli Top10
Assay: Differential scanning fluorimetry (thermal denaturation)
Format: binding
Conditions: 100 μM compound vs 1% DMSO control; * S.D. < 0.01
Listing of entries alongside the reported ΔTm1 (regulatory domain).

# example entries with known answers
>>> result("CCOC(=O)[C@H](Cc1ccccc1)NC(=O)c1c(O)c(=O)[nH]c2ccc(OC(F)(F)F)cc12 [Compound 3]")
"+8.3 ± 0.06 °C"
>>> result("O=C(c1ccccc1)c1c(O)c(=O)[nH]c2ccc(OC(F)(F)F)cc12 [Compound 20]")
"+0.8± 0.01 °C"
>>> result("O=C(c1c(O)c(=O)[nH]c2ccc(OC(F)(F)F)cc12)N1CCCCC1 [Compound 16]")
"+1.7 ± 0.07 °C"
>>> result("O=C(c1c(O)c(=O)[nH]c2ccc(OC(F)(F)F)cc12)N1CCCC1 [Compound 15]")
"+1.1 ± 0.02 °C"

Now turn to the next compound.
Exam item: I would be grateful if you could share the reported ΔTm1 (regulatory domain) for COC(=O)CNC(=O)c1c(O)c(=O)[nH]c2ccc(OC(F)(F)F)cc12 [Compound 11] .
Marked response: +4.0 ± 0.01 °C
